Provenance of the data: ChEMBL document CHEMBL2321876

- ASSAY_METHOD_TEXT: Displacement of Fl-Sal-AMS from Acinetobacter baumanni BasE expressed in Escherichia coli after 30 mins by fluorescence polarization assay
- Set-up: species or system Acinetobacter baumannii
- CONDITION_CONTEXT: read-out: Kd
# Kd binned as band 1 (below 0.3 µM), band 2 (0.3 µM to below 0.9 µM), band 3 (0.9 µM or more)

> print(dat)
                              smiles.record  assigned.category
1  O=C(O)c1cc(-c2cn[nH]c2)nc2c1cnn2Cc1ccncc1             band 3
2  O=C(O)c1cc(C#Cc2ccccc2)nc2c1cnn2Cc1ccncc1             band 2
3    O=C(O)c1cc(N2CCOCC2)nc2c1cnn2Cc1ccncc1             band 3
4        CCn1ncc2c(C(=O)O)cc(-c3ccccc3)nc21             band 3
5  O=C(O)c1ccc(-c2cc(C(=O)O)c3cnn(Cc4ccncc4)c3n2)cc1             band 2
6  O=C(O)c1cc(-c2ccccc2O)nc2c1cnn2Cc1ccncc1             band 1

QUERY: # bin label for O=C(O)c1cc(-c2cccc(O)c2)nc2c1cnn2Cc1ccncc1
RESULT: band 1

QUERY: Given COc1ccc(Cn2ncc3c(C(=O)O)cc(-c4ccccc4)nc32)cc1 , name the class its Kd places it in.
RESULT: band 3

QUERY: # bin label for CC(=O)Nc1ccc(-c2cc(C(=O)O)c3cnn(Cc4ccncc4)c3n2)cc1
RESULT: band 2

QUERY: // bin(item) where item = O=C(O)c1cc(-c2cccc(Cl)c2)nc2c1cnn2Cc1ccncc1
RESULT: band 1
